PROTOCOL: Volume of distribution in steady state rat at 2 mg/kg, iv
Format: ADME, organism-based
RUN CONDITIONS: in vivo, read-out: Vdss
ENDPOINT: Vd (L/kg)
Record the value in L/kg, omitting the unit from your answer.

## Input Query: Vd; subject: Nc1nc(-c2cccc(-n3ccc4cc(C5CC5)cc(F)c4c3=O)c2CO)c2cc(C3=CCN(C4COC4)CC3)[nH]c2n1
## Output 3.64

* * *

PROTOCOL: Half life in rat at 15 mg/kg, po
Type: ADME, organism-based
RUN CONDITIONS: in vivo
ENDPOINT: half-life
Output should be the measured figure followed by the unit it is expressed in.

## Input Query: half-life; subject: Nc1nc(-c2cccc(-n3ccc4cc(C5CC5)cc(F)c4c3=O)c2CO)c2cc(C3=CCN(C4COC4)CC3)[nH]c2n1 [MILREBRUTINIB]
## Output 214 min
